# Procedure Details: CCTE_Shafer_MEA_acute_per_burst_spike_number_mean: CCTE's Neural Acute Assay for Average Number of Spikes Per Burst, Shafer Lab (AID 2284015);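 note: hits are decreases in mean spikes per burst versus baseline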
Active and inactive are the calls of the source. Rule for the calls: active = hit-call score of the fitted dose curve at least 0.9, where 1 is the maximum; inactive = score below 0.9.
# output must be one of active, inactive

Here's what some known entries look like.
CC(C)(C)c1cc(O)ccc1O : inactive
CC(C)(OO)c1ccccc1 : inactive
C=C(C)C(=O)[O][Sn]([CH2]CCC)([CH2]CCC)[CH2]CCC : inactive
O=C(O)C(Cl)(Cl)Cl : inactive

### Prompt I'd appreciate the recorded outcome for "CC(C)(C)CC(C)(C)c1ccc(O)cc1" from this test.
### Response inactive

### Prompt I'd appreciate the recorded outcome for "CCC(C)(C)c1ccc(O)c(C(C)(C)CC)c1" from this test.
### Response active

### Prompt I'd appreciate the recorded outcome for "CCOP(=S)(OCC)SCSP(=S)(OCC)OCC" from this test.
### Response inactive

### Prompt I'd appreciate the recorded outcome for "O=C(O)C(F)(F)C(F)(F)C(F)(F)C(F)(F)C(F)(F)C(F)(F)C(F)(F)C(F)(F)C(F)(F)C(F)(F)F" from this test.
### Response active

### Prompt I'd appreciate the recorded outcome for CC(=O)OC(c1ccccc1)C(Cl)(Cl)Cl (centres undefined) from this test.
### Response inactive
